molecular target: BSA (Bos taurus, UniProt P02769); assay: Fluorescence enhancement of dyes upon binding to a protein (BSA); details: ratio of fluorescence (emission maxima) with BSA vs without; 1 μM dye, 150 μg BSA, 10 mM TRIS pH 7.5, no SDS
Sequence (P02769 25-607): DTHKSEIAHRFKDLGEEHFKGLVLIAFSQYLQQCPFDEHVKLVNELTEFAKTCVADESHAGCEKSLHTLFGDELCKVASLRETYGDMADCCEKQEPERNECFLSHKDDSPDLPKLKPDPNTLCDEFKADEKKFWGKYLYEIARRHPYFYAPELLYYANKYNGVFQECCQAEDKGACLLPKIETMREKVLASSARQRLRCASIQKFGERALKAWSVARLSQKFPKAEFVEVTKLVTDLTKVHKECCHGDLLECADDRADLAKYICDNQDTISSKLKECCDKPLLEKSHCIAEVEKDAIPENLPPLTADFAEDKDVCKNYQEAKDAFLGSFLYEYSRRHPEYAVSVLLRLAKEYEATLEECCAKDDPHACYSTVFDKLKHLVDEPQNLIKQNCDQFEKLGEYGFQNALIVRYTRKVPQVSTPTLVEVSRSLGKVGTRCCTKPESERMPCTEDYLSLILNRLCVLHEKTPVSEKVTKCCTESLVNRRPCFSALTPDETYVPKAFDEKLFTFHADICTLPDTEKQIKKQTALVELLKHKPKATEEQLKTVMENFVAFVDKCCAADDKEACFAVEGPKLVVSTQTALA
Quick rule for you: Fluorescence Enhancement without SDS at 30 or higher means Y, lower means N.

# smiles input, assigned class
data = [
    ("CCCCCCN(CCCCCC)c1ccc(C=Cc2cc[n+](CCCP(=O)(OCC)OCC)c3ccccc23)cc1.[Br-]", "Y"),
    ("CCOP(=O)(CCC[n+]1ccc(C=Cc2ccc3c(c2)c2ccccc2n3CC)c2ccccc21)OCC.[Br-]", "N"),
    ("CCCCCCN(CCCCCC)c1ccc(C=Cc2sc3cc(S(=O)(=O)N4CCCCC4)ccc3[n+]2CCCCS(=O)(=O)[O-])cc1", "N"),
    ("CCCCN(CCCC)c1ccc(C=Cc2cc[n+](CCCP(=O)(OCC)OCC)c3ccccc23)cc1.[Br-]", "Y"),
    ("C[n+]1c(/C=C/c2cc3c4c(c2)CCCN4CCC3)sc2cc(S(=O)(=O)N3CCCCC3)ccc21", "Y"),
]
